System: H. influenza Hi4 efflux pump KO
MIC vs 8 µg/mL: less than gives YES; not less than gives NO.

Study these solved cases before continuing.
{"Compound": "COC[C@@H]1[C@@H](O)[C@@H]2[C@H]3C=C[C@@H]4[C@@H](COC)C(=O)O[C@H]([C@H](O)COC)[C@H](C)/C=C(\\C)[C@@]24O[C@H]3[C@@H]1OC(=O)c1ccsc1", "Measurement target": "H. influenza Hi4 efflux pump KO", "Qualitative label": "NO"}
{"Compound": "COC[C@@H]1[C@@H](O)[C@@H]2[C@H]3C=C[C@@H]4[C@@H](COC)C(=O)O[C@H]([C@H](O)COC)[C@H](C)/C=C(\\C)[C@@]24O[C@H]3[C@@H]1OC(=O)c1cocn1", "Measurement target": "H. influenza Hi4 efflux pump KO", "Qualitative label": "NO"}
{"Compound": "COC[C@@H]1[C@@H](O)[C@@H]2[C@H]3C=C[C@@H]4[C@@H](COC)C(=O)O[C@H]([C@H](O)COC)[C@H](C)/C=C(\\C)[C@@]24O[C@H]3[C@@H]1OC(=O)c1cc(C)n[nH]1", "Measurement target": "H. influenza Hi4 efflux pump KO", "Qualitative label": "NO"}
{"Compound": "COC[C@@H]1[C@@H](O)[C@@H]2[C@H]3C=C[C@@H]4[C@@H](COC)C(=O)O[C@H]([C@H](O)COC)[C@H](C)/C=C(\\C)[C@@]24O[C@H]3[C@@H]1OC(=O)c1cc(F)c[nH]1", "Measurement target": "H. influenza Hi4 efflux pump KO", "Qualitative label": "YES"}
{"Compound": "COC[C@@H]1[C@@H](O)[C@@H]2[C@H]3C=C[C@@H]4[C@@H](COC)C(=O)O[C@H]([C@H](O)COC)[C@H](C)/C=C(\\C)[C@@]24O[C@H]3[C@@H]1OC(=O)c1cc(Cl)c[nH]1", "Measurement target": "H. influenza Hi4 efflux pump KO", "Qualitative label": "YES"}
{"Compound": "COC[C@@H]1[C@@H](O)[C@@H]2[C@H]3C=C[C@@H]4[C@@H](COC)C(=O)O[C@H]([C@H](O)COC)[C@H](C)/C=C(\\C)[C@@]24O[C@H]3[C@@H]1OC(=O)c1ccoc1C", "Measurement target": "H. influenza Hi4 efflux pump KO", "Qualitative label": "NO"}
{"Compound": "COC[C@@H](O)[C@H]1OC(=O)[C@H](COC)[C@H]2C=C[C@H]3[C@H]4O[C@]2(/C(C)=C/[C@H]1C)[C@@H]3[C@H](O)[C@@H](C)[C@H]4OC(=O)c1ccc[nH]1", "Measurement target": "H. influenza Hi4 efflux pump KO", "Qualitative label": "YES"}
{"Compound": "COC[C@@H](O)[C@H]1OC(=O)[C@H](COC)[C@H]2C=C[C@H]3[C@H]4O[C@]2(/C(C)=C/[C@H]1C)[C@@H]3[C@H](O)[C@@H](C)[C@H]4OC(=O)c1cc(Cl)c[nH]1", "Measurement target": "H. influenza Hi4 efflux pump KO", "Qualitative label": "YES"}
{"Compound": "COCC(=NO)[C@H]1OC(=O)[C@H](COC)[C@H]2C=C[C@H]3[C@H]4O[C@]2(/C(C)=C/[C@H]1C)[C@@H]3[C@H](O)[C@@H](COC)[C@H]4OC(=O)c1cc(F)c[nH]1", "Measurement target": "H. influenza Hi4 efflux pump KO", "Qualitative label": "YES"}
{"Compound": "COC[C@@H]1[C@@H](O)[C@@H]2[C@H]3C=C[C@@H]4[C@@H](COC)C(=O)O[C@H]([C@H](O)COC)[C@H](C)/C=C(\\C)[C@@]24O[C@H]3[C@@H]1OC(=O)c1cc(F)c(F)[nH]1", "Measurement target": "H. influenza Hi4 efflux pump KO", "Qualitative label": "NO"}

Could you now look at the following compound, please?
is_below(MIC, 8 µg/mL) for "COC[C@@H]1[C@@H](O)[C@@H]2[C@H]3C=C[C@@H]4[C@@H](COC)C(=O)O[C@H]([C@H](O)COC)[C@H](C)/C=C(\C)[C@@]24O[C@H]3[C@@H]1OC(=O)c1cc(Br)c[nH]1" ?
YES
